Biological target: Aldehyde dehydrogenase 1A1 (Homo sapiens) (UniProt P00352)
Sequence (P00352 whole entry, looked up): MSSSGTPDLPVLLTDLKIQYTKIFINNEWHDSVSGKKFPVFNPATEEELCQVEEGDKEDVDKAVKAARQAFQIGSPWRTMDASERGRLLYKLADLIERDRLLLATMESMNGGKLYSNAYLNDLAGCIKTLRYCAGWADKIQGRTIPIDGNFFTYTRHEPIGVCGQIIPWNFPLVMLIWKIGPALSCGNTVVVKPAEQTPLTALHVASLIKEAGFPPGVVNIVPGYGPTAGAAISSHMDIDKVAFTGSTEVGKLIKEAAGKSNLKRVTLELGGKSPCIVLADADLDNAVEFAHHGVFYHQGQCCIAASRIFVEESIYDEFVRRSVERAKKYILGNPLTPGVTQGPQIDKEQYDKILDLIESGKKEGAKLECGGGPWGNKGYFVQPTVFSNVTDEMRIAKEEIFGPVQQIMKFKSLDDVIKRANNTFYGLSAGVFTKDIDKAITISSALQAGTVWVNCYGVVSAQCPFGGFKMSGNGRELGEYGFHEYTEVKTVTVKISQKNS
Assay: qHTS Assay for Inhibitors of Aldehyde Dehydrogenase 1 (ALDH1A1)
Settings: Purified ALDH1A1, NADH fluorescence, propionaldehyde substrate; series mostly up to 75.3 µM
Out of some 220,000 compounds screened, about 16,000 (7.3%) were called active. About 25% were inconclusive and are not listed. Calls follow the shape of the dose curve; as a rule, active = well fitted inhibition curve with a large enough effect (not every such curve was filed as active); inconclusive = small, poorly fitted or top-dose-only effect, or another doubt; inactive = no such curve, though single readings can be large or run the other way. The list comes from a sample in which actives are over-represented; it also holds close analogues and randomly drawn compounds.
A correct response names exactly one class from active, inactive

>>> answer_label("C#CCOCCOCCOCCNc1nc(N2CCN(C(=O)[C@H](CCC(=O)O)n3cc(C(N)CO)nn3)CC2)nc(N2CCN(C(=O)[C@H](Cc3ccc(O)cc3)n3cc(C(N)[C@H](C)CC)nn3)CC2)n1 (some centres undefined)")
"inactive"
>>> answer_label("Cc1ccc(-n2c(N)c(C(=O)N3CCOCC3)sc2=S)c(C)c1")
"active"
>>> answer_label("CCOC(=O)CNC(=O)CSc1nnc(-c2cccc(OC)c2)n1CC")
"inactive"
>>> answer_label("Cc1ccc(C(=O)N2CCN(C(=O)N3CCOCC3)CC2)cc1")
"inactive"
>>> answer_label("CCOc1ccc(CN2CCN(Cc3ccon3)CC2CCO)cc1 (centres undefined)")
"inactive"

Q: Hi, sorry to bother you, what did the test record for `COCCCNC(=S)NC(=O)c1ccccc1` ?
Result: inactive

Q: Same lookup for `CCCCNC(=O)CSc1nc2n[nH]c(C)c2c(=N)n1-c1cccc(Cl)c1C` , please.
Result: inactive

Q: // repeat for `Cc1ccc(NC(=O)O[C@@H]2C(=O)c3cc(Br)ccc3O[C@H]2c2ccc3c(c2)OCO3)cc1Br` and report
Result: inactive

Q: Now the same for `CCOC(=O)N1CCN(CCC(=O)Nc2cc(OC)ccc2OC)CC1`
Result: inactive

Q: Then this compound: `COc1ccc(C(=O)NNC(=S)NC(=O)c2ccccc2[N+](=O)[O-])cc1`
Result: inactive

Q: Can you check CCN1CC(CN(C)Cc2nc(-c3ccc(Cl)cc3)no2)CC1=O (centres undefined) next?
Result: inactive

Q: Same thing, different compound: `CCCC(=O)C1CCN(Cc2ccccc2)CC1`
Result: inactive

Q: And what about the compound `O=[n+]1c2c(n([O-])c3cc(Br)ccc31)CCC2` ?
Result: active

Q: Now give it for `Cc1cccc(C(=O)N2CCCN(C(=O)c3cccc(C)c3)CC2)c1` too.
Result: inactive

Q: Now the same for `COc1ccc2c(c1)C(c1cccs1)=NNC(c1cccnc1)=N2`
Result: inactive

Q: Would you mind doing `Cc1ccc(-c2noc(CSc3nnnn3-c3ccccc3)n2)cc1` as well?
Result: active

Q: Next compound: `S=C(Nc1ccc(Br)cc1Cl)NC1CCN(Cc2ccccc2)CC1`
Result: active

Q: Same again, this time with `Cc1nc2ccc(C(=O)N3CCN(c4ccccc4)CC3)cc2s1`
Result: inactive

Q: Same lookup for `C=Cn1c(C(=O)O)ccc1-c1ccc(OC)cc1` , please.
Result: inactive

Q: Next record, please: `Cc1cccc(-n2c(N)c(C(=O)N3CCN(C)CC3)sc2=S)c1`
Result: active
